Tested on: A431
Assay: LBPA endosome anti-LBPA integrated intensity (sum per cell), Z-score; higher = more LBPA staining
Details: compound concentration in added solution (µM; 5 µl added to 20 µl cells): 10; 18 h
The entries below are paired with their reported LBPA endosome anti-LBPA integrated intensity (z-score).

Worked examples follow.
Exercise: Determine from records and report LBPA endosome anti-LBPA integrated intensity (z-score) for COc1cc([C@@H]2c3cc4c(cc3[C@@H](O[C@@H]3O[C@@H]5CO[C@@H](C)O[C@H]5[C@H](O)[C@H]3O)[C@H]3COC(=O)[C@H]23)OCO4)cc(OC)c1O [Etoposide]
Solution: -0.699

Exercise: Determine from records and report LBPA endosome anti-LBPA integrated intensity (z-score) for COC(=O)[C@H]1[C@H]2C[C@@H]3c4[nH]c5cc(OC)ccc5c4CCN3C[C@H]2C[C@@H](OC(=O)c2cc(OC)c(OC)c(OC)c2)[C@@H]1OC
Solution: 3.11

Turning to the following molecule.
Exercise: Determine from records and report LBPA endosome anti-LBPA integrated intensity (z-score) for CC[C@H](C)C(=O)O[C@H]1C[C@H](O)C=C2C=C[C@H](C)[C@H](CC[C@@H](O)C[C@@H](O)CC(=O)O)[C@H]21
Solution: 1.48

Source listed as the supplement of paper PMC6607015.
